# System: biotinyl-Phe-oxazolone
# test_name: self-aminoacylation, catalytic enhancement (BFO) (fold over background); higher = more active; k-Seq, kA / k0A0; sequences stand for … in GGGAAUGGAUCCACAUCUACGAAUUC…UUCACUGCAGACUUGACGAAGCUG
This sample holds only a part of the variants without activity.
// label = t if self-aminoacylation is not less than 1, otherwise f

See these solved cases before continuing.
query_sequence="AUUACCCUGGGCAUCAAGUGA [Fam2.1 aminoacylation ribozyme variant]" measured_target=biotinyl-Phe-oxazolone qualitative_label=t
query_sequence="CCACACUUCUAGCAAUCGGUC [Fam1B.1 aminoacylation ribozyme variant]" measured_target=biotinyl-Phe-oxazolone qualitative_label=f
query_sequence="AAGUUUGCUAGUAGUUGCAAG [Fam3.1 aminoacylation ribozyme variant]" measured_target=biotinyl-Phe-oxazolone qualitative_label=f
query_sequence="CCGCACUUCAAGCACUCGGUC [Fam1B.1 aminoacylation ribozyme variant]" measured_target=biotinyl-Phe-oxazolone qualitative_label=t
query_sequence="AGUACGCUGGUCAUCGAGUGA [Fam2.1 aminoacylation ribozyme variant]" measured_target=biotinyl-Phe-oxazolone qualitative_label=t
query_sequence="CCACACUGCAAGAAAUCGGUC [Fam1B.1 aminoacylation ribozyme variant]" measured_target=biotinyl-Phe-oxazolone qualitative_label=t

Now consider a different sequence.
Given the entry AUUACGCUGGUCAUGGAGUGA [Fam2.1 aminoacylation ribozyme variant] , answer whether its self-aminoacylation meets or surpasses 1.
t
